target: Androgen Receptor (AR) (Homo sapiens); construct: endogenous in cells; host or cells: VCaP; assay: AR immunofluorescence staining, high content imager, VCaP cells; assay type: cell-based; details: maximal AR degradation
Sequence (P10275 whole entry): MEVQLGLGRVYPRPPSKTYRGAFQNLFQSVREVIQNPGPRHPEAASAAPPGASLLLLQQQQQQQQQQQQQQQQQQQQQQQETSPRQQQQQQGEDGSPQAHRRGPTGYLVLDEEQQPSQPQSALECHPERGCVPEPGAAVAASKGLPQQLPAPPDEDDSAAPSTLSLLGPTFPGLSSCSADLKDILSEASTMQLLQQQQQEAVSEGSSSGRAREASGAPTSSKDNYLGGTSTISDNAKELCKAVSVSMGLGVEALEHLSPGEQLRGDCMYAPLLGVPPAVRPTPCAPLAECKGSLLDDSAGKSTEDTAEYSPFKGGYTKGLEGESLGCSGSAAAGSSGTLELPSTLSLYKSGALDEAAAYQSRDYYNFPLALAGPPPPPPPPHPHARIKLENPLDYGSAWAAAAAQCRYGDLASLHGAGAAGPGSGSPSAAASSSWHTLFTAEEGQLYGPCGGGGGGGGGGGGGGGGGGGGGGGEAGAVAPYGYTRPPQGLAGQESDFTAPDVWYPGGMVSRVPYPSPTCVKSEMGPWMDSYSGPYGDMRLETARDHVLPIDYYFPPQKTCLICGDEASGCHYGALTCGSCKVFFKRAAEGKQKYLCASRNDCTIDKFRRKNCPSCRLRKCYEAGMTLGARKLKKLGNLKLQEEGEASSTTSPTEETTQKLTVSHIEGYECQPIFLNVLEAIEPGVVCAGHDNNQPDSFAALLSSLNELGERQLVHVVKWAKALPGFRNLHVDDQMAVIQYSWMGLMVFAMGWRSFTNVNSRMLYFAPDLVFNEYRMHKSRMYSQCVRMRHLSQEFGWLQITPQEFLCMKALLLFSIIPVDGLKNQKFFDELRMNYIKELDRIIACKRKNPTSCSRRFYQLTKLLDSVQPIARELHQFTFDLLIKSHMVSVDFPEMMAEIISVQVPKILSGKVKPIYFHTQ
test-readout: Dmax

Solved entries (count: 2):
Cc1cc(O[C@H]2C(C)(C)[C@H](NC(=O)c3ccc(N4CCC(CN5CCOCCCCOc6ccc(C(=O)NC7CCC(=O)NC7=O)cc6O[C@H]6C[C@H]5C6)CC4)cc3)C2(C)C)cc(C)c1C#N (stereo partly drawn): < 50%
Cc1cc(O[C@H]2C(C)(C)[C@H](NC(=O)c3ccc(N4CCC(CN5CCN(c6ccc(C(=O)N[C@H]7CCC(=O)NC7=O)cn6)CC5)CC4)cc3)C2(C)C)cc(C)c1C#N: ≥ 70%

Moving on to another compound below.
Ask: Please tell me the measured Dmax for Cc1cc(O[C@H]2C(C)(C)[C@H](NC(=O)c3ccc(N4CCO[C@H](CN(C(C)C)[C@H]5C[C@@H](Oc6ccc(C(=O)N[C@H]7CCC(=O)NC7=O)c(F)c6)C5)C4)cc3)C2(C)C)cc(C)c1C#N ; system: Androgen Receptor (AR) (Homo sapiens).
Reply: ≥ 70%
